# procedure-text: self-splicing fitness, log relative to wild type (ln ratio); higher = more splicing; Tetrahymena group I intron in knt gene, E. coli kanamycin selection, DiMSum; sequences stand for … in CUCUCU…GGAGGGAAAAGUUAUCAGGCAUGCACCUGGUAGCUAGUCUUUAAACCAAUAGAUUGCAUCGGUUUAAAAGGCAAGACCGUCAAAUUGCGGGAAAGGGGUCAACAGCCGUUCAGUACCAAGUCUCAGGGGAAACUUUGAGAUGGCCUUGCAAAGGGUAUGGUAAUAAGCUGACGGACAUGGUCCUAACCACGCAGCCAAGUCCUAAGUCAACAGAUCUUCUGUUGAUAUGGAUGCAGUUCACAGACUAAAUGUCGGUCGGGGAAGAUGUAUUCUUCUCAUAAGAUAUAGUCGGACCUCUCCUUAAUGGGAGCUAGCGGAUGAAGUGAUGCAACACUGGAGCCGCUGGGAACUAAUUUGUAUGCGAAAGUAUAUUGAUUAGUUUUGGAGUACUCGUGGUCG;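 also: selection with 25 µg/mL kanamycin versus none on LB agar overnight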
# condition-context: 30 °C
# maps each entry to its self-splicing fitness (ln)

1. GUCCAGCAAUAUUACGUCGC; -0.994

Req: # get_value(readout='self-splicing fitness (ln)', item= CUCCAGCAAUAUUACGUACG )
Resp: -1.82

Req: Next record, please: UGAGAGCAAUAUUACGUAAU
Resp: -3.22

Req: Next record, please: CCAGAGCAAUAUUACGGGAC
Resp: -2.81

Req: Next record, please: CGAUAGCAAUAUUACGGUCA
Resp: -0.212

Req: Next record, please: CGCCAGCAAUAUUACGGACU
Resp: -0.845

Req: Next record, please: CCAAAGCAAUAUUACGUGUC
Resp: -3.56

Req: Next record, please: CUACAGCAAUAUUACGUUCA
Resp: -2.98

Req: Next record, please: CAAAAGCAAUAUUACGGGGU
Resp: -4.06

Req: Next record, please: CGGAAGCAAUAUUACGCGCA
Resp: -1.9

----------
# procedure-text: self-splicing fitness, log relative to wild type (ln ratio); higher = more splicing; Tetrahymena group I intron in knt gene, E. coli kanamycin selection, DiMSum; sequences stand for … in CUCUCU…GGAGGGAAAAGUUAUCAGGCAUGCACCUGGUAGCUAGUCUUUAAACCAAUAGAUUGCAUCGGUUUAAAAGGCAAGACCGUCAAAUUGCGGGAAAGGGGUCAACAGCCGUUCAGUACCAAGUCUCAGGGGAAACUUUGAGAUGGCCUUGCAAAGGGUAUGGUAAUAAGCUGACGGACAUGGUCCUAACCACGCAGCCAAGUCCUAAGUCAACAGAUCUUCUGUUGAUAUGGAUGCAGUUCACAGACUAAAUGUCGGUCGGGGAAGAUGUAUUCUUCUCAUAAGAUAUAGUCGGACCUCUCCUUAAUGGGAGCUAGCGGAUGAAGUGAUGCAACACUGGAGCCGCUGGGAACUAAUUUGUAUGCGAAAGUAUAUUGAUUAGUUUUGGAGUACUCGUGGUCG
# condition-context: 30 °C
quantity-name: self-splicing fitness (ln)

Req: # get_value(readout='self-splicing fitness (ln)', item= GCCGAGCAAUAUUACGGAGA )
Resp: -1.55

Req: Next record, please: GCCUAGCAAUAUUACGGUUC
Resp: -1.02

Req: Next record, please: AGGUAGCAAUAUUACGUAUG
Resp: -3.7

----------
# procedure-text: self-splicing fitness, log relative to wild type (ln ratio); higher = more splicing; Tetrahymena group I intron in knt gene, E. coli kanamycin selection, DiMSum; sequences stand for … in CUCUCU…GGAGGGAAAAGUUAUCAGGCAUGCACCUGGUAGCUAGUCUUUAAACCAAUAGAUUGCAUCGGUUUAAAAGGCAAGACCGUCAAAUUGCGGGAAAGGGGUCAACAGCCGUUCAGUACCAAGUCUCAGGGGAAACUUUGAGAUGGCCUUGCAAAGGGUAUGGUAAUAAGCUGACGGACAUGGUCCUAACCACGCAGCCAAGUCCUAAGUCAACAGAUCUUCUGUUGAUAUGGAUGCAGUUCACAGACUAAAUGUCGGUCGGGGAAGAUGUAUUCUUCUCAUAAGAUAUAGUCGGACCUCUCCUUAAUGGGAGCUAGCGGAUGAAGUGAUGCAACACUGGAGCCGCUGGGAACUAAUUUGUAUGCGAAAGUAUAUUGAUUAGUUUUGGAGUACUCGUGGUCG
# condition-context: 30 °C
# maps each entry to its self-splicing fitness (ln)
Please give only the number in your answer, with no unit.

Example entries begin here.
1) UAACAGCAAUAUUACGGUUC; -2.65
2) UACAAGCAAUAUUACGCGUA; -2.92
3) UUUGAGCAAUAUUACGUGCA; -3.05

Req: # get_value(readout='self-splicing fitness (ln)', item= GCACAGCAAUAUUACGCCGU )
Resp: -1.51

Req: Next record, please: GUUGAGCAAUAUUACGGAGA
Resp: -2.47

----------
# procedure-text: self-splicing fitness, log relative to wild type (ln ratio); higher = more splicing; Tetrahymena group I intron in knt gene, E. coli kanamycin selection, DiMSum; sequences stand for … in CUCUCU…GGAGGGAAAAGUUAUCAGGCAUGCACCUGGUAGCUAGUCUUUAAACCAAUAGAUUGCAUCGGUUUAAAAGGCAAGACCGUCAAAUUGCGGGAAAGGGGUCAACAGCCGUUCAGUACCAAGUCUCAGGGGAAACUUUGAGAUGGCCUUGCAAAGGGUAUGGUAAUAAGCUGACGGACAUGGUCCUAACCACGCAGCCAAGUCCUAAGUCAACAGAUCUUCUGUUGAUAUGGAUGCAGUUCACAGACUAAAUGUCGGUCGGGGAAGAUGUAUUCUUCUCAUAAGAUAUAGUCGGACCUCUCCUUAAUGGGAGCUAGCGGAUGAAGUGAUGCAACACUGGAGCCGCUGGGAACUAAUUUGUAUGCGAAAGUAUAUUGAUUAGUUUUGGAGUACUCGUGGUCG
# condition-context: 37 °C
# binning rule on self-splicing fitness (ln): lo: < -2; mid: ≥ -2 and < -0.8; hi: ≥ -0.8

Known results for sequences:
1. UAGCAGCAAUAUUACGAUAC; lo
2. GGUCAGCAAUAUUACGGUAC; hi
3. GGUAAGCAAUAUUACGCAUA; hi
4. UUCCAGCAAUAUUACGGCCA; hi
5. UCACAGCAAUAUUACGUGUA; mid
6. CCGCAGCAAUAUUACGGAGA; lo

Req: Class? Entry: CAGGAGCAAUAUUACGCAGA
Resp: lo

Req: Next record, please: AAUUAGCAAUAUUACGAACC
Resp: mid

Req: Next record, please: ACUCAGCAAUAUUACGUCAG
Resp: lo

Req: Next record, please: UAAGAGCAAUAUUACGAUGA
Resp: lo

Req: Next record, please: CAAAAGCAAUAUUACGAAUU
Resp: lo

----------
# procedure-text: self-splicing fitness, log relative to wild type (ln ratio); higher = more splicing; Tetrahymena group I intron in knt gene, E. coli kanamycin selection, DiMSum; sequences stand for … in CUCUCU…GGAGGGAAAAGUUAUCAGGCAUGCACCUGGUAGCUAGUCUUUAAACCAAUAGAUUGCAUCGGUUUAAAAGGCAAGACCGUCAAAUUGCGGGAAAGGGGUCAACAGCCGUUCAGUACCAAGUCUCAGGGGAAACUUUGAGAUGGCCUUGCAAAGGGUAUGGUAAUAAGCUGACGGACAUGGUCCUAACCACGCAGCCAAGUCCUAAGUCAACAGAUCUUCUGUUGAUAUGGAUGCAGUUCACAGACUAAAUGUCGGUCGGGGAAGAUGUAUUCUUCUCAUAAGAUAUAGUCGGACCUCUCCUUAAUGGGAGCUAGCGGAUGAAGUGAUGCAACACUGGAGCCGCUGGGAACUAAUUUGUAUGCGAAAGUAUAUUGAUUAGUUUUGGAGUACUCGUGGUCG
# condition-context: 30 °C
quantity-name: self-splicing fitness (ln)
Please give only the number in your answer, with no unit.

1. CGAGAGCAAUAUUACGUAGG; -3.03
2. CGGUAGCAAUAUUACGGCAU; -2.98
3. CAUUAGCAAUAUUACGCGGG; -1.95
4. UCCUAGCAAUAUUACGUUCA; -2.91
5. GACGAGCAAUAUUACGACCU; -2.01

Req: # get_value(readout='self-splicing fitness (ln)', item= UGAUAGCAAUAUUACGUGAU )
Resp: -3.09

Req: Next record, please: GACCAGCAAUAUUACGUUCG
Resp: -2.05

----------
# procedure-text: self-splicing fitness, log relative to wild type (ln ratio); higher = more splicing; Tetrahymena group I intron in knt gene, E. coli kanamycin selection, DiMSum; sequences stand for … in CUCUCU…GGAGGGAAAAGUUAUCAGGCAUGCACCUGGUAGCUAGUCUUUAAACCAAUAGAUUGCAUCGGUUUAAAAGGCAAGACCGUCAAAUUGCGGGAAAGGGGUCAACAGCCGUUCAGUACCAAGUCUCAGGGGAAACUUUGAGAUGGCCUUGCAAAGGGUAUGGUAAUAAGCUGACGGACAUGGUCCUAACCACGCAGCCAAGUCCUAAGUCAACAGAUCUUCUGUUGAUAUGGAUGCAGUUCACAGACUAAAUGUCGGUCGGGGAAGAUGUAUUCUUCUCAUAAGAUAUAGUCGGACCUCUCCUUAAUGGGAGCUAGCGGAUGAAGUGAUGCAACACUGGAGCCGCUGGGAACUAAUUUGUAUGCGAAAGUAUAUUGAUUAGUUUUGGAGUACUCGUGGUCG
# condition-context: 37 °C
# maps each entry to its self-splicing fitness (ln)
Please give only the number in your answer, with no unit.

Example entries begin here.
1) AUAAAGCAAUAUUACGACUA; 0.129
2) UCUAAGCAAUAUUACGGCAG; -0.508
3) CAACAGCAAUAUUACGGUUC; -1.34

Req: # get_value(readout='self-splicing fitness (ln)', item= UAUAAGCAAUAUUACGACUA )
Resp: 0.29
